Biological target: hCX3CR1 (Homo sapiens, UniProt P49238)
Sequence (P49238 whole entry): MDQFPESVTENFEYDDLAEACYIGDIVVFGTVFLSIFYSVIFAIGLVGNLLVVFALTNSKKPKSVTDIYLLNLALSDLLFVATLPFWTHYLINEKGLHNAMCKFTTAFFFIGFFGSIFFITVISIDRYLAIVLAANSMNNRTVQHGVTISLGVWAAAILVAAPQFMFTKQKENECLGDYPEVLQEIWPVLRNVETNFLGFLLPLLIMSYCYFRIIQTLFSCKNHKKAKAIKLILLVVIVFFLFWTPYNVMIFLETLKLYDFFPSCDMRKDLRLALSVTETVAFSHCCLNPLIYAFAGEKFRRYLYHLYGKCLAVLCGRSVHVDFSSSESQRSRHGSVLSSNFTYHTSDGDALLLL
Assay: Ga16 assay, CX3CR1 agonism, Ca2+ sensitive photo-protein readout (FLIPRTETRA)
Assay type: cell-based
Design: expressed in transfected cells; stably expresses a Ca2+ sensitive photo-protein
Conditions: human CX3CR1 cell line
OBSERVED_PROPERTY: EC50 (µM)
State just the number; it will be interpreted in µM.

q: Look up EC50: CN(CCO)CC1(CNC(=O)c2cc3c(s2)CCCCCC3)CCCC1
a: 11.8

q: Next molecule: COC1CCN(CC(C)(C)CNC(=O)c2cc3c(s2)CCCCCC3)CC1
a: 12.6

q: Similarly, O=C(NCC1(CN2CCCC2)CCCOC1)c1cc2c(s1)CCCCCC2 (stereo not drawn) ?
a: 9.6

q: And for O=C(NCC1(CN2CCC2)CCCC1)c1cc2c(s1)CCCCCC2 ?
a: 9.1

q: Also, O=C(NCC1(CN2CCC(O)C2)CCCC1)c1cc2c(s1)CCCCCC2 (single isomer, unassigned) [Example 63] please.
a: 9.8

// next item, EC50 requested
q: Data request, read-out EC50, for COC1CCN(CC2(CNC(=O)c3cc4c(s3)CCCCCC4)CCC2)CC1
a: 10

====

Reported EC50 values follow for various compounds
Biological target: hCX3CR1 (Homo sapiens)
Assay: Ga16 assay, CX3CR1 agonism, Ca2+ sensitive photo-protein readout (FLIPRTETRA)
Assay type: cell-based
Set-up: expressed in transfected cells; stably expresses a Ca2+ sensitive photo-protein
Details: human CX3CR1 cell line
Experimental: Compounds (as well as stereoisomer(s) thereof and/or salt(s) thereof) were tested for CX3CR1 agonism in a cell based assay with fluorescent readout in Agonist Mode in dose response in quadruplicate with intra-plate modality). Buffers and reagents. […] Assay protocol. […] Twenty-four hours later, cells ere assayed for the response to various compounds using the Ca^2+ sensitive photo-protein stably expressed in the cells as readout. […]

q: Requested read-out: EC50. Entry: CC(C)(CNC(=O)c1cc2c(s1)CCCCCCC2)CN1CCCC1
a: 24.6 µM

q: COCCOC1CCN(CC(C)(C)CNC(=O)c2cc3c(s2)CCCCCC3)CC1 ?
a: 22.6 µM

q: Record: O=C(NCC1(CN2CCC2)CCC1)c1cc2c(s1)CCCCCC2
a: 9.1 µM

q: Now give it for O=C(NCC1(CN2CCCC2)CCOCC1)c1cc2c(s1)CCCCCC2 too.
a: 8.8 µM

q: Proceed to CC(C)(CNC(=O)c1cc2c(s1)CCCCCC2)CN1CCCC1
a: 11.5 µM

// next entry
q: Which value of EC50 has been reported for CN(C)CC1(CNC(=O)c2cc3c(s2)CCCCCC3)CCCCC1 in the records?
a: 11.5 µM

====

Property: pEC50; scope: individual compounds
Molecular target: rCX3CR1 (Rattus norvegicus, UniProt P35411)
Construct: stably expresses a Ca2+ sensitive photo-protein
Sequence (P35411 1-354): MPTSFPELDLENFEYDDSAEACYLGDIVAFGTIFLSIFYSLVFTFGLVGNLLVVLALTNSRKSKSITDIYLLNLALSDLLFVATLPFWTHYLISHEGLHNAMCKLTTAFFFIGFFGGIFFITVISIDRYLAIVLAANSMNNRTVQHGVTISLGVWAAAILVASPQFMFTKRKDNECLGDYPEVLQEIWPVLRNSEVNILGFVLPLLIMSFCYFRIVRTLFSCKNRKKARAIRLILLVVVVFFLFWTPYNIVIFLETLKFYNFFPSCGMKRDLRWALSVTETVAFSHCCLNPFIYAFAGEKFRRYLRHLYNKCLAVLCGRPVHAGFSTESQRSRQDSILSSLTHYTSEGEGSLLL
Assay: Ga16 assay, CX3CR1 agonism, Ca2+ sensitive photo-protein readout (FLIPRTETRA)
Conditions: rat CX3CR1 cell line
Procedure: Compounds (as well as stereoisomer(s) thereof and/or salt(s) thereof) were tested for CX3CR1 agonism in a cell based assay with fluorescent readout in Agonist Mode in dose response in quadruplicate with intra-plate modality). Buffers and reagents. […] Assay protocol. […] Twenty-four hours later, cells ere assayed for the response to various compounds using the Ca^2+ sensitive photo-protein stably expressed in the cells as readout. […]
Would you please state pEC50, meaning minus log10 of the concentration in mol/L, as a bare number?

q: May I ask what pEC50 has been recorded for O=C(NCC1(CN2C[C@H]3CCO[C@@H]3C2)CCCC1)c1cc2c(s1)CCCCCC2 [Example 69] ?
a: 4.69

q: Can you check CN(CCO)CC1(CNC(=O)c2cc3c(s2)CCCCCC3)CCCC1 [Example 17] next?
a: 4.80

q: Again, but for CN(C)CC1(CNC(=O)c2cc3c(s2)CCCCCC3)CCCC1 [Example 2]
a: 5.07

q: Could you do the same for CC(C)(CNC(=O)c1cc2c(s1)CCCCCC2)CN1CCCC1 [Example 1] , please?
a: 4.86

====

As shown below, each of these compounds has a reported pEC50 value.
Target: hCX3CR1 (Homo sapiens)
Experiment: Suchi5 assay (HEK/NatClytin/CNG/Suchi5 transiently transfected hCX3CR1, Fluo-8 Ca2+ readout)
Type: cell-based
Set-up: expressed in transfected cells; stably expresses a Ca2+ sensitive photo-protein
Settings: Suchi5 assay, HEK/NatClytin/CNG/Suchi5 transfected with hCX3CR1; read-out: hCX3CR1 agonism EC50
Please report pEC50 as the negative decimal logarithm of the molar concentration, giving only the number.

Known pEC50 results, listed for orientation:
q: Provide value of pEC50 for this record tested with hCX3CR1 (Homo sapiens): COC1(C)CCN(CC2(CNC(=O)c3cc4c(s3)CCCCCC4)CCC2)CC1 [Example 48]
a: 5.00

q: Then what about the compound O=C(NCC1(CN2CCC(O)CC2)CCCOC1)c1cc2c(s1)CCCCCC2 (centres unmarked) [Example 45] ?
a: 4.85

q: Now the compound CC1CCCC1(CNC(=O)c1cc2c(s1)CCCCCC2)CN(C)C (single isomer, unassigned) [Example 60]
a: 4.99

q: Another compound: O=C(NCC1(CN2CCCC(O)C2)CCC1)c1cc2c(s1)CCCCCC2 (centres unmarked) [Example 65]
a: 5.09

q: Input O=C(NCC1(CN2CCCC2)CC(F)(F)C1)c1cc2c(s1)CCCCCC2 [Example 57]
a: 4.81

q: Try this compound too: O=C(NCC1(CN2CCC(O)CC2)CCC1)c1cc2c(s1)CCCCCC2 [Example 41]
a: 5.60

---
q: Request: pEC50, test system hCX3CR1 (Homo sapiens), entry CN(CCO)CC1(CNC(=O)c2cc3c(s2)CCCCCC3)CCC1 [Example 30]
a: 4.44

====

Reported pEC50 values for a set of compounds
Biological target: mCX3CR1 (Mus musculus, UniProt Q9Z0D9)
Construct: expressed in transfected cells; stably expresses a Ca2+ sensitive photo-protein
Sequence (Q9Z0D9 1-354): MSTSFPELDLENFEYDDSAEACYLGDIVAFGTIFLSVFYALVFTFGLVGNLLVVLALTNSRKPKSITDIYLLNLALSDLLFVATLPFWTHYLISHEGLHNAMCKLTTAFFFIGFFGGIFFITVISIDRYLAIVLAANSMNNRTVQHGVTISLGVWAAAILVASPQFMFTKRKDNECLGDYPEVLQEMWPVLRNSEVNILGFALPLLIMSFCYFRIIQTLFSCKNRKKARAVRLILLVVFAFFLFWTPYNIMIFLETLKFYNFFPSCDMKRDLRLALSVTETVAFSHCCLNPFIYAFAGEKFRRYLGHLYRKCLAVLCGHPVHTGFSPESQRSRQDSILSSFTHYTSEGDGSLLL
Assay: Ga16 assay, CX3CR1 agonism, Ca2+ sensitive photo-protein readout (FLIPRTETRA)
Type: cell-based
Settings: mouse CX3CR1 cell line
pEC50 field: float, defined as -log10 of concentration (mol/L).

q: What value of pEC50 has been recorded for this entry: O=C(NCC1(CN2CCCC2)CCCCC1)c1cc2c(s1)CCCCCC2
a: 4.60

q: # repeat for COC1CCN(CC2(CNC(=O)c3cc4c(s3)CCCCCC4)CCC2)CC1
a: 5.06

Moving on to another compound below.
q: // lookup pEC50 for CC1(C)CN(CC2(CNC(=O)c3cc4c(s3)CCCCCC4)CCC2)CCC1O (stereo not drawn)
a: 4.72

====

Reported EC50 values follow for various molecules
Target: mCX3CR1 (Mus musculus, UniProt Q9Z0D9)
Construct: stably expresses a Ca2+ sensitive photo-protein
Test: Ga16 assay, CX3CR1 agonism, Ca2+ sensitive photo-protein readout (FLIPRTETRA)
Conditions: mouse CX3CR1 cell line
Return type: number; implicit unit µM.

q: Look up EC50 for this molecule: CC(C)(CNC(=O)c1cc2c(s1)CCCCCC2)CN1CCCCC1
a: 16

***
q: What value of measured EC50 is listed for CN(C)CC(C)(C)CN(C)C(=O)c1cc2c(s1)CCCCCC2 ?
a: 26.1

q: Consider next the molecule CN(C)CC1(CNC(=O)c2cc3c(s2)CCCCCC3)CCC1 in the same way.
a: 11.5
